# target_under_test: DPP 9 (Homo sapiens)
# Sequence (Q86TI2 whole entry): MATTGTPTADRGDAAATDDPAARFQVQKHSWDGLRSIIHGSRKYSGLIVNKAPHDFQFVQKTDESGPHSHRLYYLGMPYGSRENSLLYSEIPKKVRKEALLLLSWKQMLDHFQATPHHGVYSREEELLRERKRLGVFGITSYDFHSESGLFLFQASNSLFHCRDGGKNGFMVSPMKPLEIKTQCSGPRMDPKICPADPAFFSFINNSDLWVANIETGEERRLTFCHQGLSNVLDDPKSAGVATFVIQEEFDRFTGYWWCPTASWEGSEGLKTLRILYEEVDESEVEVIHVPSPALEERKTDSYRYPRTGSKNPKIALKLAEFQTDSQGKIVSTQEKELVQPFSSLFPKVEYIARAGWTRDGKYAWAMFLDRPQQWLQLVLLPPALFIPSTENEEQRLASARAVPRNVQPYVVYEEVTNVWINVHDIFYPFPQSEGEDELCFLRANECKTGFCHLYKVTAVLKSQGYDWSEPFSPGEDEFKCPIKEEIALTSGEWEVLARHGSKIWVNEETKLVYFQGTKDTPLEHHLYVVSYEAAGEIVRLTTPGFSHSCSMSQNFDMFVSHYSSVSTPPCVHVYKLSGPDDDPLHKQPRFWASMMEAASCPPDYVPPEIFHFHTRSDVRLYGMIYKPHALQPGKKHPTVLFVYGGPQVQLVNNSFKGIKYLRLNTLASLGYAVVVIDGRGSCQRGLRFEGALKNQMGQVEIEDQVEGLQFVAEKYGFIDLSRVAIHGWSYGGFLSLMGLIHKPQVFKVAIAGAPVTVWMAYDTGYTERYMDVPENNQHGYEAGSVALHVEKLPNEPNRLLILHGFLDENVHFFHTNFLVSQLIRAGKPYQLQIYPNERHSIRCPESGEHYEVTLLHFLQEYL
# measurement_protocol: In vitro selectivity, human proteases: DPP 9
# Assay type: biochemical
pIC50: −log10 of the molar value. Structures can show the parent of a compound that is named as a salt.
measured_parameter: pIC50

[ask] Recorded pIC50 of CC#CCn1c(N2CCC[C@@H](N)C2)nc2c1c(=O)n(Cc1ncccc1C#N)c(=O)n2C [monohydrochloride] , please.
[reply] < 5.00

====

# measurement_protocol: Exploratory single dose PK/PD (1.0/5.0/10.0 mg/kg) in cats: pharmacokinetics
# Format: in vivo
# condition_set: male, domestic short hair, plasma; 1.0 mg/kg single oral, cat; free base by LC-MS/MS; read-out: T1/2, mean (converted)
Where a name gives a salt, the structure may show the parent alone.
measured_parameter: half-life (h)
Report the figure in h without appending any unit label.

[ask] Return reported half-life; argument: CC#CCn1c(N2CCC[C@@H](N)C2)nc2c1c(=O)n(Cc1ncccc1C#N)c(=O)n2C [monohydrochloride]
[reply] 25.4
